# Procedure summary: yeast growth toxicity, wild-type and mutant, primary screen, cytotoxicity control for eIF2B function restoration project, wild-type and eIF2Bepsilon R284H mutant, A595 (AID 685);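 note: 0% = untreated cell controls and 100% = YPD media blanks without cells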
# Condition parameters: S. cerevisiae wild-type growth, A595 turbidity, 16 h; screened at 25 µM (by protocol)
Screen size: about 30,000 compounds; about 80 (0.3%) were called active.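 Rule for the calls: active = mutant and wild-type yeast strains alike exhibit over 30% growth inhibition; inconclusive = a strain exceeds 50% while the second remains under 30%; inactive = the rest.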 The list comes from a sample in which actives are over-represented; it also holds close analogues and randomly drawn compounds.
Possible outcomes: t = active, f = inactive

>  <Compound>
COC(=O)COc1ccc(S(=O)(=O)N2CCOCC2)cc1

>  <Cat>
f

$$$$
>  <Compound>
Clc1cccc(N=C2NN=C(c3ccc4c(c3)OCCO4)CS2)c1

>  <Cat>
f

$$$$
>  <Compound>
COc1ccc(CCNC(=O)CN(c2ccccc2)S(C)(=O)=O)cc1OC

>  <Cat>
f

$$$$
>  <Compound>
CCn1c(-c2ccoc2C)n[nH]c1=S

>  <Cat>
f

$$$$
>  <Compound>
Cc1ccc(N2C(=O)CC(Sc3ncn[nH]3)C2=O)cc1 (configuration not stated)

>  <Cat>
f

$$$$
>  <Compound>
CCOc1ccc(S(=O)(=O)Nc2ccc(S(=O)(=O)Nc3cc(OC)ccc3OC)cc2)cc1

>  <Cat>
f

$$$$
>  <Compound>
Cc1cccc(NC(=O)C2CCCN2S(=O)(=O)c2ccc(F)cc2)c1C (configuration not stated)

>  <Cat>
f

$$$$
>  <Compound>
Cc1ccc(S(=O)(=O)N(C)C2(C)CCS(=O)(=O)C2)cc1 (configuration not stated)

>  <Cat>
f

$$$$
>  <Compound>
CC1CC2=C(CC1/C=N/NC(N)=S)C(C)(C)CCC2 (configuration not stated)

>  <Cat>
t

$$$$
>  <Compound>
CCOCCOCCC(C(=O)O)P(=O)(c1ccccc1)c1ccccc1 (configuration not stated)

>  <Cat>
f

$$$$
>  <Compound>
COc1cc2c(cc1OC)C(C(C)C)=NC(C)(C)C2

>  <Cat>
f

$$$$
>  <Compound>
c1ccc(CSCCc2ccncc2)cc1

>  <Cat>
f

$$$$

###

A collection of compounds and their measured growth inhibition
# Procedure summary: yeast growth toxicity, wild-type and mutant, primary screen, cytotoxicity control for eIF2B function restoration project, wild-type and eIF2Bepsilon R284H mutant, A595 (AID 685);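 note: 0% = untreated cell controls and 100% = YPD media blanks without cells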
# Condition parameters: S. cerevisiae wild-type growth, A595 turbidity, 16 h; stronger effect = higher value; screened at 25 µM (by protocol)
About 80 (0.3%) of roughly 30,000 compounds were called active. Only a selection was taken, and actives are over-represented in it overall.

>  <Compound>
CC1CCC2(CC1)NC(=O)N(CC(=O)c1cccn1C)C2=O (stereo unspecified)

>  <growth inhibition / %>
3

$$$$
>  <Compound>
CCOC(=O)C1=C(CSc2nccn2C)NC(=O)NC1c1ccc(OC)cc1 (stereo unspecified)

>  <growth inhibition / %>
17.1

$$$$
>  <Compound>
COc1ccc(CN2CCCCC2C)cc1OC (stereo unspecified)

>  <growth inhibition / %>
8.46

$$$$
>  <Compound>
O=C(Nc1ccccc1-c1nnn(CC(=O)N2CCCc3ccccc32)n1)c1cccc(Cl)c1

>  <growth inhibition / %>
-12.9

$$$$
>  <Compound>
Cc1cc(C(=O)Nc2ccccc2N2CCOCC2)c2ccccc2n1

>  <growth inhibition / %>
28.1

$$$$
>  <Compound>
COc1cccc2c1OCC1COc3c(c(=O)n(C)c(=O)n3C)C21 (stereo unspecified)

>  <growth inhibition / %>
14.8

$$$$
>  <Compound>
CC(C)CC(=O)Nc1cc(C(F)(F)F)ccc1N1CCOCC1

>  <growth inhibition / %>
18.6

$$$$
>  <Compound>
O=C(C1CCC(C(=O)N2CCCC2)CC1)N1CCCC1 (stereo unspecified)

>  <growth inhibition / %>
-0.38

$$$$
>  <Compound>
Cc1cc(C)cc(NC(=O)C2CCN(c3nc(C)cc(C)n3)CC2)c1

>  <growth inhibition / %>
5.33

$$$$
>  <Compound>
CN1CCN(C(=O)Cn2c(C(F)(F)F)nc3ccccc32)CC1

>  <growth inhibition / %>
9.62

$$$$
>  <Compound>
COC(=O)c1cc(NC(=O)CC2C(=O)NCCN2C(=O)c2ccc(F)cc2)cc(C(=O)OC)c1 (stereo unspecified)

>  <growth inhibition / %>
3.33

$$$$

###

# Procedure summary: yeast growth toxicity, wild-type and mutant, primary screen, cytotoxicity control for eIF2B function restoration project, wild-type and eIF2Bepsilon R284H mutant, A595 (AID 685);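 note: 0% = untreated cell controls and 100% = YPD media blanks without cells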
# Condition parameters: S. cerevisiae wild-type growth, A595 turbidity, 16 h; stronger effect = higher value; screened at 25 µM (by protocol)
Out of some 30,000 compounds screened, about 80 (0.3%) were called active. What follows is part of a selection rich in actives, with near analogues and random picks from the rest.
Overview of recorded growth inhibition for various compounds

>  <Compound>
CN1C(=O)C(CC(N)=O)N(NC(=O)c2ccc(Cl)cc2)C1=S (configuration not stated)

>  <growth inhibition / %>
33.8

$$$$
>  <Compound>
Cc1ccoc1C(=O)Nc1cccc(Oc2ccccc2)c1

>  <growth inhibition / %>
20.3

$$$$
>  <Compound>
COc1ccc2oc(C)c(NC(C)=O)c2c1

>  <growth inhibition / %>
17.6

$$$$
>  <Compound>
CCOC(=O)c1c(NC(=O)CSc2nnc(CNc3ccc(C)cc3C)o2)sc(C)c1C

>  <growth inhibition / %>
25.9

$$$$
>  <Compound>
FC(F)(F)c1nnc2ccc(N3CCN(c4ccccc4)CC3)nn12

>  <growth inhibition / %>
11.8

$$$$
>  <Compound>
CCOC(=O)CSc1nc2ccc(C)cc2[nH]1

>  <growth inhibition / %>
-5.43

$$$$
>  <Compound>
CCN1CCCC1Cn1cnc2c([nH]c3cc(OC)ccc32)c1=O (configuration not stated)

>  <growth inhibition / %>
10

$$$$
>  <Compound>
C=CCNC(=O)c1ccc(C)c(Br)c1

>  <growth inhibition / %>
6.76

$$$$
>  <Compound>
CCOc1ccc(-c2nc(C)sc2CC(=O)O)cc1

>  <growth inhibition / %>
16.7

$$$$
>  <Compound>
Cc1cc(-c2ccccc2)nc(N2CCC(C(=O)NC34CC5CC(CC(C5)C3)C4)CC2)n1

>  <growth inhibition / %>
2.16

$$$$
>  <Compound>
Cc1[nH][nH]c(=O)c1N=Nc1ccccc1

>  <growth inhibition / %>
25.8

$$$$
>  <Compound>
COc1cc(C)c(C(C)C)cc1S(=O)(=O)n1ccnc1

>  <growth inhibition / %>
-17

$$$$

###

# Procedure summary: yeast growth toxicity, wild-type and mutant, primary screen, cytotoxicity control for eIF2B function restoration project, wild-type and eIF2Bepsilon R284H mutant, A595 (AID 685);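 note: 0% = untreated cell controls and 100% = YPD media blanks without cells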
# Condition parameters: S. cerevisiae eIF2Bepsilon-R284H mutant growth, A595 turbidity, 16 h; stronger effect = higher value; screened at 25 µM (by protocol)
Screen size: about 30,000 compounds; about 80 (0.3%) were called active. Many of the other results were omitted from the sample, so actives are more common in it than they were.

>  <Compound>
N#Cc1c(/N=C/N2CCCC2)oc(-c2ccccc2)c1-c1ccccc1

>  <Output unit>
%

>  <growth inhibition>
7.69

$$$$
>  <Compound>
COC(=O)Nc1ncc(CN2CCCCC2)s1

>  <Output unit>
%

>  <growth inhibition>
6.45

$$$$
>  <Compound>
CCC(=NC1CC(C)(C)NC(C)(C)C1)C1=C(O)CC(C)(C)CC1=O

>  <Output unit>
%

>  <growth inhibition>
14.8

$$$$
>  <Compound>
O=c1c2ccccc2nc(CSc2nnnn2-c2ccccc2)n1-c1ccccc1

>  <Output unit>
%

>  <growth inhibition>
-14.8

$$$$
>  <Compound>
O=C(Cn1cnc2ccccc2c1=O)NCC1COc2ccccc2O1 (stereo unspecified)

>  <Output unit>
%

>  <growth inhibition>
10.9

$$$$
>  <Compound>
O=C(CN1CCSCC1)N/N=C/c1ccc(F)cc1

>  <Output unit>
%

>  <growth inhibition>
17.5

$$$$
>  <Compound>
C/C(=N\NC(=O)c1nc(C)cc(C)n1)c1ccccc1

>  <Output unit>
%

>  <growth inhibition>
24.3

$$$$
>  <Compound>
Cc1ccc(CNC(=O)COc2ccc(S(=O)(=O)NC(C)C)cc2)cc1

>  <Output unit>
%

>  <growth inhibition>
11.6

$$$$
>  <Compound>
COC(=O)c1cc(NC(=O)CC2C(=O)NCCN2C(=O)c2ccc(F)cc2)cc(C(=O)OC)c1 (stereo unspecified)

>  <Output unit>
%

>  <growth inhibition>
14.3

$$$$
>  <Compound>
CCOCCOCCC(C(=O)O)P(=O)(c1ccccc1)c1ccccc1 (stereo unspecified)

>  <Output unit>
%

>  <growth inhibition>
16.7

$$$$
>  <Compound>
COc1cccc(N2CC(C(=O)Nc3c(C)cccc3C)CC2=O)c1 (stereo unspecified)

>  <Output unit>
%

>  <growth inhibition>
-17.4

$$$$
